Origin of values: ChEMBL document CHEMBL1201862

study_target: UniProtKB P24822
method_description: PubChem AID 488785
Format: functional
Active and inactive are the calls of the source.
Possible outcomes: true = active, false = inactive

O=C(CCO)c1ccc(O)cc1 : false
O=C(COC(=O)c1ccccc1)Nc1ncc([N+](=O)[O-])s1 : true
Cc1nonc1C(=O)N/N=C/c1ccc(O)c(O)c1 : true
CCn1nc(C)c(CN2CCC(C(=O)Nc3cccc(-c4cccc(F)c4)c3)CC2)c1C : true
C=CCn1cc(CN2CCC(C(=O)Nc3cccc(-c4cccc(Cl)c4)c3)CC2)c(C)n1 : true
COc1ccccc1CNC(=O)CCNS(=O)(=O)c1ccc2[nH]c(=O)oc2c1 : true
O=C1c2cccc(O)c2C(=O)c2c(O)cc(CO)cc21 [ALOE-EMODIN] : true

---

study_target: Eukaryotic translation initiation factor 4E (Mus musculus)
Sequence (P63073 whole entry): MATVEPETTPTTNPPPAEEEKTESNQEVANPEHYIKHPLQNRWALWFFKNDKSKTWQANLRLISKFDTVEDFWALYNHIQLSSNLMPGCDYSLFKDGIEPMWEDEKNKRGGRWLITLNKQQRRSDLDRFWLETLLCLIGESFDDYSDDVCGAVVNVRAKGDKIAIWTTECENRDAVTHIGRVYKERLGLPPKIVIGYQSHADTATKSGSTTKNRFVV
method_description: blockers of eIF4G binding by eIF4E – biochemical, TR-FRET, dose response (AID 855);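 also: potency for disrupting eIF4E binding to eIF4GI seen as loss of FRET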
Type: functional
Calls of active or inactive are those of the source.
Possible outcomes: active, inactive

Oc1cc2c(cc1C(c1ccc(Cl)c(Cl)c1)N1CCCC1)OCO2 (stereo not given) : inactive
COc1ccc2[nH]c(=O)c(CN(CCN3CCCC3)C(=O)Nc3ccccc3Cl)cc2c1 : inactive
O=C(O)C1Nc2c(O)cc(Cl)c([N+](=O)[O-])c2C2C=CCC12 (stereo not given) : active
CCOC(=O)c1c(-c2cccc([N+](=O)[O-])c2)csc1NC(=O)CCCOc1ccccc1 : inactive
O=C(O)CCN1C(=O)/C(=C/c2cn(-c3ccccc3)nc2-c2cccs2)SC1=S : inactive
O=c1c2ccccc2[se]n1-c1ccccc1 : active
O=C(CCS(=O)(=O)c1cccc2nsnc12)NCc1ccccc1Cl : inactive
CC(C)c1cc(C(=O)Nc2cccc(Cl)c2)no1 : inactive
COc1ccc(C(=O)Nc2ccccc2C(N)=O)cc1 : inactive
C[C@@H](O)C1NC(=O)[C@H](CCCCN)NC(=O)c2cc([N+](=O)[O-])cc(I)c2NCCC[C@@H](C(N)=O)NC1=O (stereo not given in full) : inactive

---

study_target: Short transient receptor potential channel 4 (Mus musculus, UniProt Q9QUQ5)
method_description: block of DAMGO-driven TRPC4 calcium entry – cell-based, HEK293 TRPC4/mu-opioid, Fluo-4 calcium, dose response (AID 434942);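 also: potency of inhibitors blocking the TRPC4 calcium response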
Type: functional
Activity calls are given as the source filed them.
Consider the following molecules and their measured EC50 readings.
experimental_readout: EC50

Cc1ccc2c(c1)N(C(=O)CCC(=O)Nc1ccccc1Cl)CC(C)O2 (stereo not drawn) : 1.5 µM (active)
O=S(=O)(c1ccccc1)N1CCN(C/C=C/c2ccccc2)CC1 : 5.96 µM (active)
CCOC(=O)C1(CCc2ccccc2)CCN(Cc2ccco2)CC1 : 1.19 µM (active)
CCOc1c(Cl)cc(CNCC(O)c2ccccc2)cc1OC (stereo not drawn) : 2.11 µM (active)
O=C(Cc1ccccc1)N1CCN(Cc2cccc(Br)c2)CC1 : 13.3 µM (active)
COc1ccc(CN2CCN(C(=O)c3ccc(F)cc3)CC2)c(OC)c1 : 3.76 µM (active)
Cc1cccc(-n2nc(C)c3c(C(=O)O)cc(-c4cccs4)nc32)c1 : 2.99 µM (active)
Cc1ccc(-c2c[n+](Cc3cccc(Cl)c3)c3n2CCC3)cc1 : 1.33 µM (active)

---

study_target: Nonstructural protein 1 (Influenza A virus)
Sequence (Q194T2 whole entry): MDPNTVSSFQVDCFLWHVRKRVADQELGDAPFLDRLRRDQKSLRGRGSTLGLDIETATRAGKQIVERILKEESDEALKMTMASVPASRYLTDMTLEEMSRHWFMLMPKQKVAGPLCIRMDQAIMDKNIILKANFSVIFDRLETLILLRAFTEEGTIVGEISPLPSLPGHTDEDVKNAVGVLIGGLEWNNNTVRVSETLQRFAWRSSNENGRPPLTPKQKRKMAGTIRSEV
Format: functional, Influenza A virus (A/California/07/2009(H1N1))
Active and inactive are the calls of the source.
experimental_readout: IC50

COc1ccc(NC(=O)CSc2nn3c(=O)c(C)nnc3s2)cc1 : 8.25 µM (active)
Cc1ccc(C(C#N)c2ccc3c(C(F)(F)F)cc(C(F)(F)F)nc3n2)cc1 (stereo unspecified) : 24.4 µM (active)
O=C(N/N=C(\Cc1ncc[nH]1)c1ccccc1)c1ccncc1 : 2.46 µM (active)
CCn1ccnc1CNCc1cn(-c2cc(C)ccc2C)nc1-c1ccccc1 : 11.8 µM (active)
Oc1ccc(N=Nc2c(O)ccc3ccccc23)cc1 : 17.5 µM (active)
O=C(Nc1nc(-c2ccccn2)cs1)c1ccc(F)c(S(=O)(=O)N2CCOCC2)c1 : 7.88 µM (active)

---

study_target: UniProt:P03070
Sequence (P03070 whole entry): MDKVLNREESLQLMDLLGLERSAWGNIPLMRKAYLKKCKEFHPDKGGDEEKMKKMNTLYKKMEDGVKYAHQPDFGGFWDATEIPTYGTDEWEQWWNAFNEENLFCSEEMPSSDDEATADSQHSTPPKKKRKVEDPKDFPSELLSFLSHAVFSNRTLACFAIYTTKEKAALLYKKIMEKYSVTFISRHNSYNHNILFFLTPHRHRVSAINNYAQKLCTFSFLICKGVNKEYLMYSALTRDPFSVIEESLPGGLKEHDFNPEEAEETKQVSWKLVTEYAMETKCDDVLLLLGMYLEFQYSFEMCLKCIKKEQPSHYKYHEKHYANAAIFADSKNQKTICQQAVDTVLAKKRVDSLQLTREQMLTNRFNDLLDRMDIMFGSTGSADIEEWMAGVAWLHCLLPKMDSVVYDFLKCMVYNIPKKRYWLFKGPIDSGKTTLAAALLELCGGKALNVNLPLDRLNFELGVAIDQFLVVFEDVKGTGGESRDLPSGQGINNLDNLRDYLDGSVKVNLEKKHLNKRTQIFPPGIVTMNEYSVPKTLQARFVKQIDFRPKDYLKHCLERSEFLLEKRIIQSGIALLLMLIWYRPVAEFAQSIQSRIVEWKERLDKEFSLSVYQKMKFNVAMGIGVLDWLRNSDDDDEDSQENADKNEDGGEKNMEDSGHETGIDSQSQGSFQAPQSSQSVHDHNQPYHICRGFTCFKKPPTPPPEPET
Assay type: functional, Betapolyomavirus macacae
Active and inactive are the calls of the source.
experimental_readout: IC50

CCc1n[nH]c(SCC(=O)Nc2ccc(N(C)C)cc2)n1 : 15.5 µM (active)
O=C(N/N=C/c1ccc(O)c(O)c1)N/N=C/c1ccc(O)c(O)c1 : 0.73 µM (active)
O=C(CCO)c1ccc(O)cc1 : 28.8 µM (active)

---

study_target: Sentrin-specific protease 7 (Homo sapiens, UniProt Q9BQF6);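 also: Luminescence-based dose-response confirmation of ultra-high-throughput screening hits, measuring inhibition of SENP7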
Assay type: functional
Calls of active or inactive are those of the source.
Consider the following compounds and their measured IC50 readings.
experimental_readout: IC50

O=C(Nc1ccc2ccccc2c1)c1cccc(F)c1 : 4.43 µM (active)
Cc1ccc(/C=C/c2nc(O)c3ccccc3n2)cc1 : 0.788 µM (active)
Oc1ccc(N=Nc2c(O)ccc3ccccc23)cc1 : 8.49 µM (active)
O=C1N=C(NS(=O)(=O)Cc2ccccc2)S/C1=C1\C(=O)Nc2ccccc21 : 3.76 µM (active)
Clc1ccc2nc(-c3ccc(Br)s3)cn2c1 : 7.91 µM (active)

---

study_target: DNA repair protein RAD52 homolog (Homo sapiens)
Sequence (P43351 whole entry): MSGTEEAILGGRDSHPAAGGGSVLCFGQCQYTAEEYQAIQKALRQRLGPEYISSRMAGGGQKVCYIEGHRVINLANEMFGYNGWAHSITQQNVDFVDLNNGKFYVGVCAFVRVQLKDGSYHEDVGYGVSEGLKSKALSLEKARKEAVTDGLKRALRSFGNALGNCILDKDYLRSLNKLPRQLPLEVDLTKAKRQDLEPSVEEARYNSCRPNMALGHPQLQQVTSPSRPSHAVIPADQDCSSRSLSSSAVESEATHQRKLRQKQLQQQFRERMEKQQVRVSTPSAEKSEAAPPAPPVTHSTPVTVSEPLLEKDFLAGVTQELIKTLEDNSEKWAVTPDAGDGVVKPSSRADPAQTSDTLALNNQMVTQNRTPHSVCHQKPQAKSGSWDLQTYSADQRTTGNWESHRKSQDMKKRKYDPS
Format: functional, biochemical
Active and inactive are the calls of the source.
experimental_readout: AC50

Cc1ccc(-c2nc(C(=O)NCCCN(C)C)cc3c2[nH]c2ccccc23)cc1 : 2.77 µM (active)
OCCN1CCN(CC(O)COc2ccc(C34CC5CC(CC(C5)C3)C4)cc2)CC1 (configuration not stated) : 16 µM (active)
CCN(CC)CCOC(=O)c1ccc(N/C=C(/C#N)c2nc(-c3ccc(OC)c(OC)c3)cs2)cc1 : 10.9 µM (active)
NC(S)=NN=C1c2cc(OCCN3CCOCC3)ccc2-c2ccc(OCCN3CCOCC3)cc21 : 1.07 µM (active)
Cc1cc(N)ccc1NC(=O)CN1CCCC1 : 1.73 µM (active)
COc1ccc(/N=C2\S/C(=C\c3ccc(Cl)c([N+](=O)[O-])c3)C(=O)N2CCN(C)C)cc1 : 10.8 µM (active)
c1cncc(Nc2c3ccccc3nc3ccccc23)c1 : 7.23 µM (active)

---

study_target: UniProtKB P11712
Sequence (P11712 whole entry): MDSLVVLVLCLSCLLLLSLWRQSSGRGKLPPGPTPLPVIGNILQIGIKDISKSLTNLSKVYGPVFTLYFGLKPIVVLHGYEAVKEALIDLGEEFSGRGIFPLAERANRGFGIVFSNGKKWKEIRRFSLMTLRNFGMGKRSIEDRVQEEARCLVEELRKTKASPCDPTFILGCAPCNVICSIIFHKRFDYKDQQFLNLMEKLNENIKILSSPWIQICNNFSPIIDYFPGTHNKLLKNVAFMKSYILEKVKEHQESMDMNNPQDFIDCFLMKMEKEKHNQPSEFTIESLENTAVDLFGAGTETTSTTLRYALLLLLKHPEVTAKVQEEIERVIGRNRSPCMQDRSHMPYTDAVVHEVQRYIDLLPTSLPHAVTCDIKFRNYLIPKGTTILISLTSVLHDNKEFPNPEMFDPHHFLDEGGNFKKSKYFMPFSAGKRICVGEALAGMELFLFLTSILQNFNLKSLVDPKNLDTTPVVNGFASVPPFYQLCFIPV
experimental_readout: AC50

CC(C)c1ccc(C(=O)CC2(O)C(=O)N(CN3CCOCC3)c3ccccc32)cc1 (stereo not given) : 12.6 µM (inconclusive)
CC(=O)[C@]1(O)CC[C@@H]2[C@H]3C[C@@H](C)C4=CC(=O)CC[C@@]4(C)[C@H]3[C@@H](O)C[C@]21C : 7.94 µM (inconclusive)
CCCn1nc2cc(C(=O)NCc3ccc(C)cc3)ccc2c1OC : 20 µM (inconclusive)
CCN1C(=O)/C(=C/C=C2/SCCN2C)SC1=S : 4.47 µM (inconclusive)
O=C(CCNNC(=O)c1ccncc1)NCc1ccccc1 [NIALAMIDE] : 10 µM (inconclusive)

---

study_target: Fatty acid synthase (Homo sapiens, UniProt P49327)
Sequence (P49327 whole entry): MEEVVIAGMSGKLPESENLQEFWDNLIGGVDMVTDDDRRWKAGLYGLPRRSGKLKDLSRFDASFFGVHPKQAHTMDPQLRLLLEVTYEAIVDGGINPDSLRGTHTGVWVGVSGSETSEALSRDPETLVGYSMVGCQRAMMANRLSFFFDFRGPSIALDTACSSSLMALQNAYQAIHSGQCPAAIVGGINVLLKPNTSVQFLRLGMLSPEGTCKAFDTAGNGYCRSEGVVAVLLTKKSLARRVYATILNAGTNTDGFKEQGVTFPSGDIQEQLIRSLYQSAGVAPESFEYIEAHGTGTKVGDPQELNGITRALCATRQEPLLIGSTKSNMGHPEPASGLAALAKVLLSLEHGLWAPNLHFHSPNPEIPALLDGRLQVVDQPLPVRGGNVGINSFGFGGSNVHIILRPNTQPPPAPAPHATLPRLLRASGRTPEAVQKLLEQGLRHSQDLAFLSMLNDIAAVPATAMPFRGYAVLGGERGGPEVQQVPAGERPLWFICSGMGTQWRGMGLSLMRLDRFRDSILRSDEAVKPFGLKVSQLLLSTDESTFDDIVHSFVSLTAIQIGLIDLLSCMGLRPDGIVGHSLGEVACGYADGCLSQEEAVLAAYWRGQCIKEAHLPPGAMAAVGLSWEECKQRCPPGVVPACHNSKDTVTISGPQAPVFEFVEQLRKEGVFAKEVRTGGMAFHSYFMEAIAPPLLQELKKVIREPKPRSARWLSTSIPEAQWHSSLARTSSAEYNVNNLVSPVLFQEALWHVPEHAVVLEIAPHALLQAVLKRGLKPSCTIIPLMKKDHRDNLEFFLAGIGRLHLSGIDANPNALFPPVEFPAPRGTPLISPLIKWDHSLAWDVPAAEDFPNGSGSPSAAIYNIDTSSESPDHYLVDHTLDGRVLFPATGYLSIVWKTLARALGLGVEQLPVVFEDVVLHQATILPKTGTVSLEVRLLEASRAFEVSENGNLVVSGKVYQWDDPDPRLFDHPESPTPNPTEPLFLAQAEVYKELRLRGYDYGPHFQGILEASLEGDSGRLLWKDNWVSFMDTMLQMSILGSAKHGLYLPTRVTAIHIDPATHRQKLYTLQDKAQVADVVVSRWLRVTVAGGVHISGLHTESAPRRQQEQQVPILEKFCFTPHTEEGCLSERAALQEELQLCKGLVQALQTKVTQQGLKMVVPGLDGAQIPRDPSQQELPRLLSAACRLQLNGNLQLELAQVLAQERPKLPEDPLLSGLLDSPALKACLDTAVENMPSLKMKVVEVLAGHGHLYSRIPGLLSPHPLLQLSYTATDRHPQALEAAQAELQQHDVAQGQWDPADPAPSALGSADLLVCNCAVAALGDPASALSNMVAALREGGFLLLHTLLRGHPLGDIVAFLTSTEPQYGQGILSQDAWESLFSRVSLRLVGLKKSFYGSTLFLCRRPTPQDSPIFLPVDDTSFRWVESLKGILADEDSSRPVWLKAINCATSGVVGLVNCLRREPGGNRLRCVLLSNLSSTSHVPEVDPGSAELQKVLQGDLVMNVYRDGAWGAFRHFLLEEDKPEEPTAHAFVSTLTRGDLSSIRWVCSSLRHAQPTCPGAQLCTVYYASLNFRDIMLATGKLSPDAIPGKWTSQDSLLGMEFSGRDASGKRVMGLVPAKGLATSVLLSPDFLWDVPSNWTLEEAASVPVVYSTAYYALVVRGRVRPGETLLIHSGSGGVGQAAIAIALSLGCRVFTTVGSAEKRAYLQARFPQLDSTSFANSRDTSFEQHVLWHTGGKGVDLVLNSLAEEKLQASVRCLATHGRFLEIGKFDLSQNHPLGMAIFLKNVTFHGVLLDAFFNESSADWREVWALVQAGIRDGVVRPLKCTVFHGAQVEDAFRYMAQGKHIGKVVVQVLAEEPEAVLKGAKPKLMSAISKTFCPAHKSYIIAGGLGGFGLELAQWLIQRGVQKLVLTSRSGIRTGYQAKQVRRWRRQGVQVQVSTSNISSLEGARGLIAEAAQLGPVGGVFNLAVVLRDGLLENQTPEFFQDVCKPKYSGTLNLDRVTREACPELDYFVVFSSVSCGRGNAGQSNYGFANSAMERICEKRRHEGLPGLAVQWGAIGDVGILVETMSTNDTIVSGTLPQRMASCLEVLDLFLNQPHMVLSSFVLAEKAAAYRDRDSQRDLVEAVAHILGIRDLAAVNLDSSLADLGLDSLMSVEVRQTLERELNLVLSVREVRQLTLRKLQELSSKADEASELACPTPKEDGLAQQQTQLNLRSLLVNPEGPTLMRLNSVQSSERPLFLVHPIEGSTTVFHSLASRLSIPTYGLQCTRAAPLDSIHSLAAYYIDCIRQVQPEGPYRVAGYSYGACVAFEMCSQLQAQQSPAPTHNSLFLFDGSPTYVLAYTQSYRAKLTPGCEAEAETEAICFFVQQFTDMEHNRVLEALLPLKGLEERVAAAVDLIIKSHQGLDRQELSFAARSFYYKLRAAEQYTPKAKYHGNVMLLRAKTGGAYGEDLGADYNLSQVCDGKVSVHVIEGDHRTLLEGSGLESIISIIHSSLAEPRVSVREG
method_description: inhibition of human FAS-TE enzyme activity – biochemical, endpoint fluorescence intensity, uHTS hits, dose response (AID 624327);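 also: fluorescence from hydrolysis of an O-methyl fluorescein acyl ester substrate by the enzyme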
Type: functional
Activity calls are given as the source filed them.
Consider the following compounds and their measured IC50 readings.
experimental_readout: IC50

CCOC(=O)c1cc2c(=O)n3ccccc3nc2n(CC2CCCO2)/c1=N/C(=O)/C=C/c1ccccc1 (centres undefined) : 2.71 µM (active)
Cc1ccc2c(c1C)-c1c(ccc(C)c1C)C(=O)C2=O : 7.89 µM (active)
CN(Cc1cccs1)C(=O)Cn1cnc2cc([N+](=O)[O-])ccc2c1=O : 7.81 µM (active)
O=C(/C=C/c1cccc([N+](=O)[O-])c1)NCCSCc1cccc(Cl)c1 : 11.7 µM (active)

---

Consider the following compounds and their measured IC50 readings.
study_target: Induced myeloid leukemia cell differentiation protein Mcl-1 (Homo sapiens)
Sequence (Q07820 whole entry): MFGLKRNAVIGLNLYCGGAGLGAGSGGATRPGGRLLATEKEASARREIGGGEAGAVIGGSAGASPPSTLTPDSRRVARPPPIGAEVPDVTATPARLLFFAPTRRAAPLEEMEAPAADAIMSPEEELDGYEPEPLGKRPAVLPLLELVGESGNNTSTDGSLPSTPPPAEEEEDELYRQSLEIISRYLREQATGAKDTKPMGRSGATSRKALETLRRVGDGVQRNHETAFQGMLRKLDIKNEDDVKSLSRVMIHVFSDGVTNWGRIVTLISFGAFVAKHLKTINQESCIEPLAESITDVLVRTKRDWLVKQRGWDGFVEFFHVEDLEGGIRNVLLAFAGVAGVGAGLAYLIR
Assay type: functional
Calls of active or inactive are those of the source.
experimental_readout: IC50

CSc1nnc(-c2ccco2)c(-c2ccco2)n1 : 8020 nM (active)
Oc1cccc2cc3cccc(O)c3c(O)c12 : 2390 nM (active)
O=C1c2ccccc2C(=O)N1/N=C/c1ccc(O)c(O)c1O : 2280 nM (active)
COC(=O)c1ccc(O)c2nc3c(C=O)c(O)cc(O)c3nc12 : 3760 nM (active)
CCN=c1ccc(Br)cc(C(=O)/C=C/c2c(Cl)cccc2Cl)c1O : 2320 nM (active)
O=C(O)CCN1C(=O)/C(=C/c2cn(-c3ccccc3)nc2-c2cccs2)SC1=S : 3240 nM (not active)
Cc1cc2ncn(/N=C/c3ccc([N+](=O)[O-])s3)c2cc1C : 3270 nM (active)
Cc1ccc2nc(N3C(=O)C(O)=C(C(=O)c4cc5ccccc5o4)C3c3cccs3)sc2c1 (stereo not drawn) : 2370 nM (active)
